System: A2780 (ovarian carcinoma)
Test Details: MTT in vitro growth inhibition assay, A2780
Format: cell-based
Condition Context: Homo sapiens, 25 µM of drug, 72 h, read-out: Percentage of Cell Growth Inhibition A2780
Source text: With the desired bolinaquinone analogues 12–43 in hand, we examined their cytotoxicity against a panel of 11 tumour cell lines: HT29 (colon carcinoma), U87 and SJ-G2 (glioblastoma), MCF-7 (breast carcinoma), A2780 (ovarian carcinoma), H460 (lung carcinoma), A431 (skin carcinoma), Du145 (prostate carcinoma), BE2-C (neuroblastoma), MIA (pancreatic carcinoma), SMA (spontaneous murine astrocytoma) and a normal breast cell line (MCF10A). […]
Observed Property: inhibition at 25 µM (%)
Supply the numeric figure in %, leaving out any unit text.

Input: Test system A2780 (ovarian carcinoma); read-out inhibition at 25 µM; what value for COC1=C(c2ccc3ccccc3c2)C(=O)C(OC)=C(c2ccc(OC)cc2OC)C1=O [compound 34] ?
Output: 100

Input: Test system A2780 (ovarian carcinoma); read-out inhibition at 25 µM; what value for CCCNC1=CC(=O)C(NCCC)=C(c2ccccc2-c2ccccc2)C1=O [compound 41] ?
Output: 68

Input: Test system A2780 (ovarian carcinoma); read-out inhibition at 25 µM; what value for COC1=C(c2ccc3ccccc3c2)C(=O)C(OC)=C(c2ccccc2-c2ccccc2)C1=O [compound 36] ?
Output: 87

Input: Test system A2780 (ovarian carcinoma); read-out inhibition at 25 µM; what value for COC1=CC(=O)C(OC)=C(c2cc(OC)ccc2OC)C1=O [compound 21] ?
Output: 26
